Items are presented alongside their recorded T/C.
system: P388; assay: Median survival time per control mice with leukemia P388 at 25 mg/kg dose injected intraperitoneally; type: functional, Mus musculus; conditions: route intraperitoneal
measurement.type: T/C (%)

smiles_code=COc1cc(NS(C)(=O)=O)ccc1Nc1c2ccccc2nc2c1oc1ccccc12 units_of_measure=% measurement=125
smiles_code=COc1cc(NS(C)(=O)=O)ccc1Nc1c2c(nc3ccccc13)-c1ccccc1C2 units_of_measure=% measurement=217
smiles_code=CN(C)CCCNc1c2c(nc3ccccc13)-c1ccccc1C2 units_of_measure=% measurement=88
smiles_code=COc1cc(NS(C)(=O)=O)ccc1Nc1c2ccccc2nc2c1sc1ccccc12 units_of_measure=% measurement=170
